biological target: human GLP-1 receptor (human, UniProt P43220 24-463); experiment: cell-based or functional assay
Numbered stars: 1 amine (or outer) side, 2 acyl side, 3 side chain; on linkers, the order of the positions; unused ones are H or OH. Square brackets hold non-standard residues; d marks the D form. Side chains are listed from the residue outwards. Ends that are not written are not given here. * marks the point of attachment. C18 diacid = O=C(O)CCCCCCCCCCCCCCCCC(=O)*; γGlu = O=C(O)[C@H](CCC(=O)[*:2])N[*:1]; Palmitoyl = CCCCCCCCCCCCCCCC(=O)*; AEEA = NCCOCCOCC(=O)O; Aib = CC(C)(N)C(=O)O
Give measured EC50 of GLP-1 receptor mediated cAMP production for each item. Keep answers brief.

Examples with their reported EC50 of GLP-1 receptor mediated cAMP production follow.
INSERT INTO measurements (binder, assay_value) VALUES
  ('H[Aib]QGTFTSDYSKYLEEKRAK([AEEA-AEEA-γGlu-C18 diacid])EFVAWLEGGPSSG-NH2 (not fully specified; printed as HAibQGTFTSDYSKYLEEKRAK**EFVAWLEGGPSSG-Amid) [Compound 74]', '0.842 nM'),
  ('HXQGTFTSDKSKYLXERAAKEFIXWLEAGGPSSG (not fully specified; Lys 10 side chain -Ado-Ado-γE-OC17H32COOH; C-terminal amide) [Compound 79]', '0.033 nM'),
  ('HXQGTFTSDKSKYLXERAAKEFIXWLEAGGPSSG (not fully specified; Lys 10 side chain -Ado-Ado-γE-OC17H32COOH; C-terminal amide) [Compound 36]', '0.072 nM'),
  ('H[Aib]QGTFTSDK([γGlu-γGlu-Palmitoyl])SKYLEERAAKEFVEWLEGGPSSG-NH2 (not fully specified; printed as HAibQGTFTSDK*SKYLEERAAKEFVEWLEGGPSSG-Amid) [Compound 7]', '0.72 nM');

Task: Dear colleague, I am looking for the recorded EC50 of GLP-1 receptor mediated cAMP production of the following binder: H[Aib]QGTFTSDYSKYLEERKAK([γGlu-γGlu-Palmitoyl])EFVEWLEGGPSSG-NH2 (not fully specified; printed as HAibQGTFTSDYSKYLEERKAK*EFVEWLEGGPSSG-Amid) [Compound 62]
Result: 0.313 nM
